# target_system: hFASN enzyme (full length) (Homo sapiens, UniProt P49327)
# Construct: 10 μL hFASN enzyme (full length, 300 ng, purified in house); made in house
# Sequence (P49327 whole entry): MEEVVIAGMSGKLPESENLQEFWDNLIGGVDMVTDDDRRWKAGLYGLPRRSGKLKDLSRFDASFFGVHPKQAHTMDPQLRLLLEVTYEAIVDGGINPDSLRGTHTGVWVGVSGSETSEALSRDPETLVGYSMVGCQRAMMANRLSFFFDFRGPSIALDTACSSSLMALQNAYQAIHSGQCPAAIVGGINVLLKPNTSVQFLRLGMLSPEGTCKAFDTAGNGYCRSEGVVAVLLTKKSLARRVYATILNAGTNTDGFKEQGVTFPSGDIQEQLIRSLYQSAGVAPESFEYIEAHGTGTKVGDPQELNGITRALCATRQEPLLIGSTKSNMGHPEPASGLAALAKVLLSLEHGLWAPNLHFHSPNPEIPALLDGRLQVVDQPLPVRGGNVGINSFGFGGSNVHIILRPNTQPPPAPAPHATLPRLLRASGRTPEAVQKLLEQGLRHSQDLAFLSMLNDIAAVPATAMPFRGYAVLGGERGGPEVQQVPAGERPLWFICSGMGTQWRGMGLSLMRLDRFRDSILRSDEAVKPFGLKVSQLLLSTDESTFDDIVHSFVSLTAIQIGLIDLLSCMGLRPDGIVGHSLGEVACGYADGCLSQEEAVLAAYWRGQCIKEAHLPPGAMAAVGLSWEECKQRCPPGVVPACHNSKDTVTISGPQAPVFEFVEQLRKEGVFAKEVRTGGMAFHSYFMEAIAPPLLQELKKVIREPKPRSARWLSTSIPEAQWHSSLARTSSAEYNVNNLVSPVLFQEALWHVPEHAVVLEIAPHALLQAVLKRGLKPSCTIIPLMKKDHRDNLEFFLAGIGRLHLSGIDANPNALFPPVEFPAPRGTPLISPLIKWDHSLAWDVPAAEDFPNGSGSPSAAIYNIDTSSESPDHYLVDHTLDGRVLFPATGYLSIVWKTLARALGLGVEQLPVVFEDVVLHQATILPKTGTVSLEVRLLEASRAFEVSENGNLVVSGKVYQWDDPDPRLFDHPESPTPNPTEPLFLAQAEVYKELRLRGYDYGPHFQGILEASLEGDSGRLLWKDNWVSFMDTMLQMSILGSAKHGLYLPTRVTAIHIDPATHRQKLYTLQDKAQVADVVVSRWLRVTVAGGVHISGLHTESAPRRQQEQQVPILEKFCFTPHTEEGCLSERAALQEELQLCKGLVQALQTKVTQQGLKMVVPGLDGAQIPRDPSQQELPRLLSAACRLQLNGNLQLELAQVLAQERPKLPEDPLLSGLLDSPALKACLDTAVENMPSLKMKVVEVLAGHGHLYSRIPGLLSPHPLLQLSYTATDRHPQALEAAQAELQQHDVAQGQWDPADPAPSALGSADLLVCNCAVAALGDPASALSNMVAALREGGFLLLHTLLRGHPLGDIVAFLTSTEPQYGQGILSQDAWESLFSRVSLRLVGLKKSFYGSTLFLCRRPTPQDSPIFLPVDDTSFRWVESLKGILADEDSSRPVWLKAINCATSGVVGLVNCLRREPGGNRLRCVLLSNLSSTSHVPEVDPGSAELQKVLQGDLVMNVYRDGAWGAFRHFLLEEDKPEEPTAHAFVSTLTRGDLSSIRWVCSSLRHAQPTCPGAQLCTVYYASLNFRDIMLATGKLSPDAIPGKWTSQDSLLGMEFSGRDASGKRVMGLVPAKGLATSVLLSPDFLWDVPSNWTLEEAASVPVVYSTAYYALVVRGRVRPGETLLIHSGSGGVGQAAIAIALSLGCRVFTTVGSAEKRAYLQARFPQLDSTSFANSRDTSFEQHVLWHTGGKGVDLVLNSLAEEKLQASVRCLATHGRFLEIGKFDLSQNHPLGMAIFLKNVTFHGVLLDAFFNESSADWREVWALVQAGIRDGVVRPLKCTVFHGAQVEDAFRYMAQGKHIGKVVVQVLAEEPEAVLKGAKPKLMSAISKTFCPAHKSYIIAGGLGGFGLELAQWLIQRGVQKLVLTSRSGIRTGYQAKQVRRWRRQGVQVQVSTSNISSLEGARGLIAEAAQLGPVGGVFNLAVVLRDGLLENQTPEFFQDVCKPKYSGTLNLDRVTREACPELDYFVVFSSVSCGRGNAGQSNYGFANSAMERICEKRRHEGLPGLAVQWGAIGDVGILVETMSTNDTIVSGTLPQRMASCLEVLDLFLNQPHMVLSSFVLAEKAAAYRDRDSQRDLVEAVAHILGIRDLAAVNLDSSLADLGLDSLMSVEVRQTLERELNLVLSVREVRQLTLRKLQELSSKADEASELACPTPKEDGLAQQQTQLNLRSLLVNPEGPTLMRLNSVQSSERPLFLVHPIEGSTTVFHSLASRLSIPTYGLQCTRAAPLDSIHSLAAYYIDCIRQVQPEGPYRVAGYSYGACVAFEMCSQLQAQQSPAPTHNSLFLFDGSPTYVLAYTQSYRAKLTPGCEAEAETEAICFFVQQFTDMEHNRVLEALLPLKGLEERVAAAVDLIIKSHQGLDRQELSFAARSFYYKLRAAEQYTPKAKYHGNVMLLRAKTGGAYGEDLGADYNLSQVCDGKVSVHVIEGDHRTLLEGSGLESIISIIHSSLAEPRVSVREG
# assay: Fatty Acid Synthase (FASN) inhibition scintillation proximity assay
# Format: biochemical
# test_settings: read-out: Human FASN % inhibition @ 10 μM, 10 μM test compound
inhibition at 10 µM of 70% or higher: Satisfied. Under 70%: Not satisfied.

Check out these entries, answers already filled in.
molecule=Cn1c(-c2ccc(C3=NC4(CC4)C(=O)N3CC3CN(C(=O)C4CC4)C3)c(F)c2)nc2ccccc21 category=Satisfied
molecule=O=C(C1CC1)N1CC(CN2C(=O)C3(CCN(C(=O)C(F)(F)F)CC3)N=C2c2ccc(-c3ccc4[nH]ncc4c3)cc2)C1 category="Not satisfied"
molecule=Cc1cc2cc(-c3ccc(C4=NC5(CC5)C(=O)N4C[C@@H]4CCN(C(=O)C5CC5)C4)cc3F)ccc2o1 category=Satisfied

[ask] Does the molecule `COc1ccc(-c2ccc(C3=NC4(CC4)C(=O)N3C[C@@H]3CCN(C(=O)C4CC4)C3)cc2)cc1` have recorded inhibition at 10 µM that is 70% or more?
[reply] Satisfied

[ask] Test whether the molecule `Cn1ncc2cc(-c3ccc(C4=NC5(CCN(CCO)CC5)C(=O)N4CC4CN(C(=O)C5CC5)C4)cc3)ccc21` records inhibition at 10 µM of 70% or higher.
[reply] Not satisfied

[ask] I'd appreciate it if you could say whether COC(=O)N1CC2(C1)N=C(c1ccc(-c3ccc(-c4cnn(C)c4)cc3)cc1)N(C[C@@H]1CCN(C(=O)C(C)O)C1)C2=O (stereo partly shown) has inhibition at 10 µM at least equal to 70%.
[reply] Satisfied
